Experiment: Acute toxicity test by a single administration
Type: in vivo
Settings: mouse, in vivo, 10 mg/kg; intravenous, single administration, mice
Source text: The compound of Example 1 was intravenously administered to mice.
quantity_kind: LD50

I would be grateful if you could share the reported LD50 for CCCCCCCCCCCCCCCCCCCCCCCCCC(=O)N[C@@H](CO[C@H]1O[C@H](CO)[C@H](O)[C@H](O)[C@H]1O)[C@H](O)[C@H](O)CCCCCCCCCCCCCC [KRN 7000] .
> 10 mg/kg

---

Exercise: for every item that follows, state its recorded [3H] Thymidine incorporation (cpm).
System: spleen cells of RAG-1KO/Vα14tg/Vβ8.2tg mice (NKT cells)
Assay: Stimulation of NKT cell proliferation, [3H]thymidine incorporation in spleen cells
Assay type: cell-based, mouse
Conditions: 10 ng/ml, 2 days incubation; vehicle 2056
Method: Stimulation of NKT cell proliferation by compounds having an α-glycosylceramide structure was studied using spleen cells of RAG-1KO/Vα14tg/Vβ8.2tg mice shown in Pharmacological Test Example 1. Spleen cells were prepared from the spleen of RAG-1KO/Vα14tg/Vβ8.2tg mice by conventional methods. […] The amount of [^3H] thymidine incorporated into the cells was measured by a liquid scintillation counter.
Numbers only, in cpm.

Would you please look over these solved cases?
compound	[3H] Thymidine incorporation (cpm)
CCCCCCCCCCCCCCCCCCCCCC[C@@H](O)C(=O)N[C@@H](CO[C@H]1O[C@H](CO)[C@H](O)[C@H](O[C@H]2O[C@H](CO)[C@H](O)[C@H](O)[C@H]2NC(C)=O)[C@H]1O[C@H]1O[C@H](CO)[C@@H](O)[C@H](O)[C@H]1O)[C@H](O)[C@H](O)CCCCCCCCCCCCCC [STL-8]	26474
CCCCCCCCCCCCCCC[C@@H](O)[C@H](CO[C@H]1OC[C@H](O)[C@H](O)[C@H]1O)NC(=O)CCCCCCCCCCCCC [AGL577]	7792

Respectfully, I request [3H] Thymidine incorporation (cpm) for each entry included below.
1. CCCCCCCCCCCCCCC[C@@H](O)[C@H](CO[C@H]1O[C@H](CO)[C@@H](O)[C@H](O)[C@H]1O)NC(=O)CCCCCCCCCCCCC [AGL563]
2. CCCCCCCCCCCCCCCCCCCCCC[C@@H](O)C(=O)N[C@@H](CO[C@H]1O[C@H](CO)[C@H](O)[C@H](O[C@@H]2O[C@@H]([C@H](O)CO)[C@H](O)[C@H]2O)[C@H]1O)[C@H](O)[C@H](O)CCCCCCCCCCCCCC [719-7]
3. CCCCCCCCCCCCCCC[C@@H](O)[C@H](CO[C@H]1O[C@H](C)[C@H](O)[C@H](O)[C@H]1O)NC(=O)CCCCCCCCCCCCC [AGL571]
4. CCCCCCCCCCCCCCCCCCCCCCCCCC(=O)N[C@@H](CO[C@H]1O[C@H](CO[C@H]2O[C@H](CO)[C@H](O)[C@H](O)[C@H]2O)[C@@H](O)[C@H](O)[C@H]1O)[C@H](O)[C@H](O)CCCCCCCCCCCCCC [AGL584]
5. CCCCCCCCCCCCCCC[C@@H](O)[C@H](CO[C@H]1O[C@H](CO)[C@H](O)[C@H](O)[C@H]1O)NC(=O)CCCCCCCCCCCCC [AGL517]
6. CCCCCCCCCCCCCCCCCCCCCCCCCC(=O)N[C@@H](CO[C@H]1O[C@H](CO)[C@H](O)[C@H](O)[C@H]1O)[C@H](O)[C@H](O)CCCCCCCCCCCCCC [KRN 7000]

1: 3773; 2: 30179; 3: 17848; 4: 65084; 5: 15583; 6: 74669

Quick one: give me [3H] Thymidine incorporation (cpm) for each item below, same order please.
1. CCCCCCCCCCCCCCCCCCCCCCCCCC(=O)N[C@@H](CO[C@H]1O[C@H](CO[C@H]2O[C@H](CO)[C@H](O)[C@H](O)[C@H]2O)[C@H](O)[C@H](O)[C@H]1O)[C@H](O)[C@H](O)CCCCCCCCCCCCCC [AGL586]
2. CCCCCCCCCCCCCCCCCCCCCC[C@@H](O)C(=O)N[C@@H](CO[C@H]1O[C@H](CO)[C@H](O)[C@H](O)[C@H]1O[C@H]1O[C@H](CO)[C@H](O)[C@H](O)[C@H]1O)[C@H](O)[C@H](O)CCCCCCCCCCCCCC [S1140B-9]

[39750, 10265]

Origin of the recorded values: patent US6531453B1
